Just for reference, the supplement of paper PMC9262897 is where these values come from.

# Test system: E. coli TESEC Mtb Alr
# Test Method Notes: growth (OD600 after 10 h); higher = more growth (less inhibition)
# Condition Parameters: arabinose 10000000 nM; compound 0.1 mM; raw OD600 reference: median of DMSO wells 0.146, cell-free background 0.041
Counter-ions that a name gives are not always drawn.
Reported growth by item:
Reply briefly: the number, and no unit.

Illustrative cases are given below, each with its answer.
Compound | growth
CC(C)C[C@H]1C(=O)N2CCC[C@H]2[C@]2(O)O[C@](NC(=O)[C@@H]3C=C4c5cccc6[nH]c(Br)c(c56)C[C@H]4N(C)C3)(C(C)C)C(=O)N12 [Bromocryptine mesylate] | 0.191
COc1ccc(CCN)cc1OC | 0.131
C=CCC1(CC(C)C)C(=O)NC(=O)NC1=O | 0.149
CN(C)[C@@H]1C(=O)C(C(N)=O)=C(O)[C@@]2(O)C(=O)C3=C(O)c4c(O)cccc4[C@@](C)(O)[C@H]3C[C@@H]12 [Tetracycline hydrochloride] | 0.0422
C[C@]12CC[C@H](O)C[C@H]1CC[C@@H]1[C@@H]2C[C@@H](O)[C@]2(C)[C@@H](C3=CC(=O)OC3)CC[C@]12O | 0.14

Req: What value of growth has been recorded for this entry: C[C@]12CC[C@@H](O)C[C@@H]1CC[C@@H]1[C@@H]2CC[C@]2(C)C(=O)CC[C@@H]12
Resp: 0.0878

Req: Recorded growth for O=C(O)CCCc1ccc(N(CCCl)CCCl)cc1 , please?
Resp: 0.135

###

# System: E. coli TESEC Mtb Alr
# Test Method Notes: growth (OD600 after 10 h); higher = more growth (less inhibition)
# Condition Parameters: arabinose 10000 nM; compound 0.1 mM; raw OD600 reference: median of DMSO wells 0.264, cell-free background 0.041
Where a name gives a salt, the structure may show the parent alone.
Experimental Endpoint: growth
Returns: the value as a bare number; no unit string appended.

Examples with answers:
Compound | Measured Number
COc1ccc(CCN)cc1OC [Homoveratrylamine] | 0.281
CN1CCN(C(=O)OC2c3nccnc3C(=O)N2c2ccc(Cl)cn2)CC1 (stereo not given) [Zopiclone] | 0.246
NCCCNCCSP(=O)(O)O [Amifostine] | 0.273
CCCC[N+]1(C)[C@@H]2CC(OC(=O)[C@H](CO)c3ccccc3)C[C@H]1[C@@H]1O[C@@H]12 (stereo not given in full) [Butylscopolammonium (n-) bromide] | 0.271

--- query ---
Req: Item under review: CCCN1C[C@H](CSC)C[C@@H]2c3cccc4[nH]cc(c34)C[C@H]21 [Pergolide mesylate] . Reported growth?
Resp: 0.252

###

# Tested on: E. coli TESEC Mtb Asd
# Test Method Notes: growth (OD600 after 10 h); higher = more growth (less inhibition)
# Condition Parameters: arabinose induction (level): High; compound 0.1 mM; raw OD600 reference: median of DMSO wells 0.331, cell-free background 0.041
Where a name gives a salt, the structure may show the parent alone.
growth of 0.3 or higher: Met. Under 0.3: Not met.

Req: Check this compound for growth at or above 0.3: NC(=O)C[S+]([O-])C(c1ccccc1)c1ccccc1 (stereo not drawn)
Resp: Met

Req: Textbook exercise: given the entry CNC(C)(C)Cc1ccccc1 [Mephentermine hemisulfate] , state whether its growth is greater than or equal to 0.3.
Resp: Not met

Req: // inclusive: growth at least 0.3? input: Oc1ccc2c3c1O[C@H]1[C@@H](O)CC[C@@]4(O)[C@@H](C2)N(CC2CCC2)CC[C@]314 [Nalbuphine hydrochloride]
Resp: Met

Req: Could you verify whether the entry C[C@]12CC[C@H](O)C[C@@H]1CC[C@@H]1[C@@H]2CC[C@]2(C)C(=O)CC[C@@H]12 [Epiandrosterone] shows growth of no less than 0.3?
Resp: Not met

Req: Does CC(=O)[C@H]1CC[C@H]2[C@@H]3CC[C@H]4C[C@H](O)CC[C@]4(C)[C@H]3C(=O)C[C@]12C have a reported growth of at least 0.3?
Resp: Not met

Req: Determine whether measured growth meets or exceeds 0.3 for NCCCNCCSP(=O)(O)O
Resp: Met

Req: I'd appreciate it if you could say whether COc1ccc(CCN2CCC(Nc3nc4ccccc4n3Cc3ccc(F)cc3)CC2)cc1 has growth at least equal to 0.3.
Resp: Not met

Req: Determine whether measured growth meets or exceeds 0.3 for c1ccc2c(c1)Nc1ccccc1S2
Resp: Met

Req: API: above_or_equal(metric=growth, cutoff=0.3) for item CCC(=O)O[C@@](Cc1ccccc1)(c1ccccc1)[C@@H](C)CN(C)C [Levopropoxyphene napsylate]
Resp: Not met

Req: API: above_or_equal(metric=growth, cutoff=0.3) for item O=C(CCCN1CCC(n2c(=O)[nH]c3ccccc32)CC1)c1ccc(F)cc1
Resp: Met

Req: Please tell me: is the compound CN1C[C@H](C(=O)N[C@]2(C)O[C@@]3(O)[C@@H]4CCCN4C(=O)[C@H](Cc4ccccc4)N3C2=O)C[C@@H]2c3cccc4[nH]cc(c34)C[C@H]21 [Dihydroergotamine tartrate] at or over 0.3 in terms of growth?
Resp: Not met

Req: Dear colleague, could you confirm whether CC(CCc1ccccc1)NC(C)C(O)c1ccc(O)cc1 (stereo not drawn) has growth at or above 0.3?
Resp: Met

Req: Check the entry O=C1CC[C@@]2(O)[C@H]3Cc4ccc(O)c5c4[C@@]2(CCN3CC2CC2)[C@H]1O5 [Naltrexone hydrochloride dihydrate] : does growth equal or exceed 0.3?
Resp: Not met

###

# growth listing for each entry below
# Tested on: E. coli TESEC Alr+ wild-type control
# Test Method Notes: growth (OD600 after 10 h); higher = more growth (less inhibition)
# Condition Parameters: compound 0.1 mM; raw OD600 reference: median of DMSO wells 0.49, cell-free background 0.052
Structures can show the parent of a compound that is named as a salt.
# respond with the number and nothing more

Molecule | Measured Number
CC(C)[N+](C)(CCC(C(N)=O)(c1ccccc1)c1ccccc1)C(C)C [Isopropamide iodide] | 0.516

Req: Please give the measured growth for this molecule: C=CCN1CC[C@]23c4c5ccc(O)c4O[C@H]2C(=O)CC[C@@]3(O)[C@H]1C5 [Naloxone hydrochloride]
Resp: 0.479

Req: Which growth value is on record for COc1ccc(CN2CCNCC2)c(OC)c1OC [Trimetazidine dihydrochloride] ?
Resp: 0.584

Req: Param item = Cc1cccc(C)c1NC1=NCCCS1 ; retrieve measured growth.
Resp: 0.487

Req: Endpoint output: growth of CCNCC(O)c1cccc(O)c1 (centres undefined) [Etilefrine hydrochloride] . Value?
Resp: 0.446

Req: Given the molecule C[C@]12N[C@H](Cc3ccccc31)c1ccccc12 [Dizocilpine maleate] , what is its reported growth?
Resp: 0.54

Req: Which growth is listed for NC(=O)CN1CCCC1=O ?
Resp: 0.491

Req: Item COc1ccc(OC)c(C(O)C(C)N)c1 (centres undefined) [Methoxamine hydrochloride] has what recorded growth?
Resp: 0.458

Req: Fill blank: measured growth of the molecule CN1C(=O)CCS(=O)(=O)C1c1ccc(Cl)cc1 (centres undefined) is ____.
Resp: 0.615

###

# Test system: E. coli TESEC Mtb Alr
# Test Method Notes: growth (OD600 after 10 h); higher = more growth (less inhibition)
# Condition Parameters: arabinose 1000000 nM; compound 0.1 mM; raw OD600 reference: median of DMSO wells 0.193, cell-free background 0.041
Where a name gives a salt, the structure may show the parent alone.
molecules and their reported growth

Please review the entries below; each comes with its answer.
Molecule | Experimental Endpoint | Result
CC(NC(C)(C)C)C(=O)c1cccc(Cl)c1 (stereo not given) [Bupropion hydrochloride] | growth | 0.171
C1CCc2nnnn2CC1 [Pentylenetetrazole] | growth | 0.187
CCC1(C)CC(=O)NC(=O)C1 [Bemegride] | growth | 0.191
CCCC(C)(COC(N)=O)COC(=O)NC(C)C (stereo not given) [Carisoprodol] | growth | 0.198
CC[C@@]1([C@@H]2O[C@@H]([C@H]3O[C@@](O)(CO)[C@H](C)C[C@@H]3C)C[C@@H]2C)CC[C@H]([C@]2(C)CC[C@]3(C[C@H](O)[C@@H](C)[C@@H]([C@@H](C)[C@@H](OC)[C@H](C)C(=O)O)O3)O2)O1 [Monensin sodium salt] | growth | 0.159

Req: growth lookup needed for C[C@@H]1CN([C@H]2CC[C@](C#N)(c3ccc(F)cc3)CC2)CC[C@]1(C(=O)O)c1ccccc1 [Levocabastine hydrochloride] , thanks.
Resp: 0.154

Req: Consider the molecule CC[C@@H](CO)NC(=O)[C@@H]1C=C2c3cccc4[nH]cc(c34)C[C@H]2N(C)C1 [Methylergometrine maleate] and give its measured growth.
Resp: 0.119

Req: Item CC(=O)[C@H]1CC[C@H]2[C@@H]3CC[C@H]4C[C@H](O)CC[C@]4(C)[C@H]3C(=O)C[C@]12C [Alfaxalone] has what recorded growth?
Resp: 0.101

Req: For the molecule COc1cc2c(c(OC)c1OC)-c1ccc(OC)c(=O)cc1[C@@H](NC(C)=O)CC2 [Colchicine] , what growth is on record?
Resp: 0.185

Req: Param item = O=P1(N(CCCl)CCCl)NCCCO1 (stereo not given) [Cyclophosphamide] ; retrieve measured growth.
Resp: 0.204
